target: EGFR wildtype (Homo sapiens); test: Biochemical EGFR kinase assay (Lance Ultra TR-FRET), wildtype; details: IC50 WT (nM) 100 μM ATP, 100 μM ATP
parameter: IC50 (nM)

Some solved cases for reference:
[[record]]
molecule = "CN(C)C[C@H]1CC[C@@H](Nc2cc(Nc3ccnc(-c4cnn(S(=O)(=O)C5CC5)c4)n3)ncc2-c2cc(C(C)(C)O)ccn2)CC1"
measuredresult = 178

[[record]]
molecule = "O=S(=O)(C1CC1)n1cc(-c2nccc(Nc3cc(NC4CCC(CO)CC4)c(-c4ccc(N5CCOCC5)cn4)cn3)n2)cn1 (stereo not drawn)"
measuredresult = 636


P: COC1CN(c2ccc(-c3cnc(Nc4ccnc(-c5cnn(S(=O)(=O)C6CC6)c5)n4)cc3N[C@H]3CC[C@@](C)(O)CC3)nc2)C1
Q: CN1CCN(Cc2ccc(-c3cnc(Nc4ccnc(-c5cnn(S(=O)(=O)C6CC6)c5)n4)cc3N[C@H]3CC[C@](O)(CO)CC3)nc2)CC1
Request: Lab notebook, comparison: P versus Q , higher IC50 goes to which? Refer to your chosen item by its label in the answer.
Response: Q

----------
molecular target: EGFR L858R/C797S (Homo sapiens, UniProt P00533, C797S/L858R); assay: Biochemical EGFR kinase assay (Lance Ultra TR-FRET), double mutant L858R/C797S; details: IC50 L858R/C797S, 100 μM ATP
Sequence (P00533 25-1210 C797S/L858R): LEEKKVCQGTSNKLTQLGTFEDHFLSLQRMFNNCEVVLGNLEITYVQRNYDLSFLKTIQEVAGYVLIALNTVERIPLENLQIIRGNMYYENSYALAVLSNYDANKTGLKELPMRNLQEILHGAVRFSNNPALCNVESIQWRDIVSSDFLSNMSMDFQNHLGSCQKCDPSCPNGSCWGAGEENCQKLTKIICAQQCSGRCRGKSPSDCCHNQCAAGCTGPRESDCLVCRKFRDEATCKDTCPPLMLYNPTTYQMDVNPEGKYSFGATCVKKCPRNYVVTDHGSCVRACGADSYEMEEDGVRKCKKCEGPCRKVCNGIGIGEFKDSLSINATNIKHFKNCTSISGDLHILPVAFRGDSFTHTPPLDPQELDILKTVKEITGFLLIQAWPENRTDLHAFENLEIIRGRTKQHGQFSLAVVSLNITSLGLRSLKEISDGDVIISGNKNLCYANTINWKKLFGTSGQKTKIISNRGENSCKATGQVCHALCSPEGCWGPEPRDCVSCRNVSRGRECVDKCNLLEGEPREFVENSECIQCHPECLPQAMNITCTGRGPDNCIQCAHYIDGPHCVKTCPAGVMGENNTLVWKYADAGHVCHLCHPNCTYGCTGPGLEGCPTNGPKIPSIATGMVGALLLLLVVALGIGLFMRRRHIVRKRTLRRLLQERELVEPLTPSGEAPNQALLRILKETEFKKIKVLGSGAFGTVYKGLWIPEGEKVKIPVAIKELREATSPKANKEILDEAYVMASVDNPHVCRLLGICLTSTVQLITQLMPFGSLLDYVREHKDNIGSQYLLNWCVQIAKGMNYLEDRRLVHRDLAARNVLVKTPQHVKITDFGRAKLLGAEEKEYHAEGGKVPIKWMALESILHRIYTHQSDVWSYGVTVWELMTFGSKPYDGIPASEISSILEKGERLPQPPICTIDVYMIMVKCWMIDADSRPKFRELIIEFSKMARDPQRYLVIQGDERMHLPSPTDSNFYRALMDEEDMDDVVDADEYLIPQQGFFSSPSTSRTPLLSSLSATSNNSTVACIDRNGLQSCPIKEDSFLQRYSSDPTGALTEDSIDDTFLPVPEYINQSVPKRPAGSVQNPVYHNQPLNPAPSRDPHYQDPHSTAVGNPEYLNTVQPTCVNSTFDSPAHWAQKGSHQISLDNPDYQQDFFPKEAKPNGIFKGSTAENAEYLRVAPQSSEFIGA
parameter: IC50 (nM)

I: O=S(=O)(C1CC1)n1cc(-c2nccc(Nc3cc(N[C@H]4CC[C@@H](CO)CC4)c(-c4ccc(OC(F)(F)F)cn4)cn3)n2)cn1
II: C[C@]1(O)CC[C@@H](Nc2cc(Nc3ccnc(-c4cnn(S(=O)(=O)C5CC5)c4)n3)ncc2-c2ccc(CC(F)(F)F)cn2)CC1
Request: Select one. Lower IC50: I or II Refer to your chosen item by its label in the answer.
Response: I
(I: 36.9 nM, II: 59.4 nM)

P: CC(O)(c1ccc(-c2cnc(Nc3ccnc(-c4cnn(S(=O)(=O)C5CC5)c4)n3)cc2N[C@H]2CCC[C@H](CO)C2)nc1)C(F)(F)F (stereo partly drawn)
Q: CC(C)(F)c1ccc(-c2cnc(Nc3ccnc(-c4cnn(S(=O)(=O)C5CC5)c4)n3)cc2N[C@H]2CC[C@@](C)(O)CC2)nc1
Request: Select one. Lower IC50: P or Q Refer to your chosen item by its label in the answer.
Response: Q
(Q: 2.8 nM, P: 60.2 nM)

----------
molecular target: EGFR wildtype (Homo sapiens, UniProt P00533); assay: Biochemical EGFR kinase assay (Lance Ultra TR-FRET), wildtype; settings: ATP at Km; read-out: IC50 WT, Km ATP
Sequence (P00533 25-1210): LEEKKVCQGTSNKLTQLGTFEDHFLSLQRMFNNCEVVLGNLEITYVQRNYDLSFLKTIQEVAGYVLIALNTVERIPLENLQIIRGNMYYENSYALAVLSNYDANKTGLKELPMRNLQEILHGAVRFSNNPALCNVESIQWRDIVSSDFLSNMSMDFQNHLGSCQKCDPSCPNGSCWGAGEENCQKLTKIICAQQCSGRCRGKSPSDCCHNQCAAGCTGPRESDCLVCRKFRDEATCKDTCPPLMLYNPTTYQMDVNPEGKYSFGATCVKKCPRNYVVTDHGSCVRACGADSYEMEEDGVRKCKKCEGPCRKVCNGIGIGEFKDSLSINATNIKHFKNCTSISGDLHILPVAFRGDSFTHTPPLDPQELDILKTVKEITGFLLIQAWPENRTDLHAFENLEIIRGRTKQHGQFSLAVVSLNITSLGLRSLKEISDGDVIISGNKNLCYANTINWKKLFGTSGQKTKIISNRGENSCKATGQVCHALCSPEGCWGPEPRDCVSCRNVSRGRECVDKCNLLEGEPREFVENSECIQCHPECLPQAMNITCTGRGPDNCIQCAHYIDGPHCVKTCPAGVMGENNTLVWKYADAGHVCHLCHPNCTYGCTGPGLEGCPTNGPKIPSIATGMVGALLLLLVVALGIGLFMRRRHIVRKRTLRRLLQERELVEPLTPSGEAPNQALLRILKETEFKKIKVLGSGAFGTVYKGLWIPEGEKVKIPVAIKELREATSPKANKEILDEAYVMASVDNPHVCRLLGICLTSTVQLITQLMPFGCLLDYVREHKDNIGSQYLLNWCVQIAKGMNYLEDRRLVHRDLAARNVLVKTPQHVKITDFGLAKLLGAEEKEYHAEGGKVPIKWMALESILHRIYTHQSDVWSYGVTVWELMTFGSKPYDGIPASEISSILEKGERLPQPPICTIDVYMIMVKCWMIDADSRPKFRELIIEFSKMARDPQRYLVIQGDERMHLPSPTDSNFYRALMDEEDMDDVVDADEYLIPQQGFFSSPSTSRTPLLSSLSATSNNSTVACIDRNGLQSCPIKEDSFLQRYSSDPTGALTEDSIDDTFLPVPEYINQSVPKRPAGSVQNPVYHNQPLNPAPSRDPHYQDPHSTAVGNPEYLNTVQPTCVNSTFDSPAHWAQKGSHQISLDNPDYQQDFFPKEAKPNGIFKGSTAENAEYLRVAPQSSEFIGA
parameter: IC50 (nM)

Some solved cases for reference:
[[record]]
compound = "O=C(c1ccc(-c2cnc(Nc3ccnc(-c4cnn(S(=O)(=O)C5CC5)c4)n3)cc2N[C@H]2CC[C@@H](CO)CC2)nc1)N1CCOCC1 [Example 200]"
measuredresult = 0.6

[[record]]
compound = "CN1CCN(C(=O)c2ccc(-c3cnc(Nc4ccnc(-c5cnn(S(=O)(=O)C6CC6)c5)n4)cc3N[C@H]3CC[C@@H](CN(C)C)CC3)nc2)CC1 [Example 204]"
measuredresult = 0.4

[[record]]
compound = "O=S(=O)(C1CC1)n1cc(-c2nccc(Nc3cc(N[C@H]4CC[C@@H](CO)CC4)c(-c4ccc(OCCO)cn4)cn3)n2)cn1 [Example 206]"
measuredresult = 1.2

[[record]]
compound = "CC(C)(F)c1ccc(-c2cnc(Nc3ccnc(-c4cnn(S(=O)(=O)C5CC5)c4)n3)cc2N[C@H]2CC[C@@](C)(O)CC2)nc1 [Example 291]"
measuredresult = 3.7

[[record]]
compound = "CC(C)(O)c1ccc(-c2cnc(Nc3ccnc(-c4cnn(S(=O)(=O)C5CC5)c4)n3)cc2N[C@H]2CC[C@@H](F)CC2)nc1 [Example 173]"
measuredresult = 23.2

[[record]]
compound = "O=S(=O)(C1CC1)n1cc(-c2nccc(Nc3cc(N[C@H]4CC[C@@H](CO)CC4)c(-c4cc(OCCN5CCOCC5)ccn4)cn3)n2)cn1 [Example 212]"
measuredresult = 3.4


1: COC(c1ccc(-c2cnc(Nc3ccnc(-c4cnn(S(=O)(=O)C5CC5)c4)n3)cc2NC2CCC(CN(C)C)CC2)nc1)C(F)(F)F (stereo not drawn) [Example 262]
2: CN1CCN(C(=O)c2ccc(-c3cnc(Nc4ccnc(-c5cnn(S(=O)(=O)C6CC6)c5)n4)cc3N[C@H]3CC[C@@H](C(C)(C)O)CC3)nc2)CC1 [Example 203]
3: C[C@]1(O)CC[C@@H](Nc2cc(Nc3ccnc(-c4cnn(S(=O)(=O)C5CC5)c4)n3)ncc2-c2cccc(CC(F)(F)F)n2)CC1 [Example 293]
4: CC1(O)CCC(Nc2cc(Nc3ccnc(-c4cnn(S(=O)(=O)C5CC5)c4)n3)ncc2-c2ccc(C(O)C(F)(F)F)cn2)CC1 (stereo not drawn) [Example 226]
5: CC(C)(F)c1ccc(-c2cnc(Nc3ccnc(-c4cnn(S(=O)(=O)C5CC5)c4)n3)cc2NC2CCC(F)CC2)nc1 (stereo not drawn) [Example 239]
Request: Task field, ranking: reported IC50, descending order. Ranked list of labels, please, in the requested order.
Response: 5, 3, 4, 1, 2
(5: 216 nM, 3: 138 nM, 4: 4.9 nM, 1: 2 nM, 2: 0.3 nM)

----------
target: EGFR del19/C797S (Homo sapiens, UniProt P00533, C797S/DEL746-750); test: Biochemical EGFR kinase assay (Lance Ultra TR-FRET), double mutant del19/C797S; details: Km ATP; read-out: IC50 del19/C797S (nM) Km ATP
Sequence (P00533 with tags, fused parts or gaps DEL746-750/C797S): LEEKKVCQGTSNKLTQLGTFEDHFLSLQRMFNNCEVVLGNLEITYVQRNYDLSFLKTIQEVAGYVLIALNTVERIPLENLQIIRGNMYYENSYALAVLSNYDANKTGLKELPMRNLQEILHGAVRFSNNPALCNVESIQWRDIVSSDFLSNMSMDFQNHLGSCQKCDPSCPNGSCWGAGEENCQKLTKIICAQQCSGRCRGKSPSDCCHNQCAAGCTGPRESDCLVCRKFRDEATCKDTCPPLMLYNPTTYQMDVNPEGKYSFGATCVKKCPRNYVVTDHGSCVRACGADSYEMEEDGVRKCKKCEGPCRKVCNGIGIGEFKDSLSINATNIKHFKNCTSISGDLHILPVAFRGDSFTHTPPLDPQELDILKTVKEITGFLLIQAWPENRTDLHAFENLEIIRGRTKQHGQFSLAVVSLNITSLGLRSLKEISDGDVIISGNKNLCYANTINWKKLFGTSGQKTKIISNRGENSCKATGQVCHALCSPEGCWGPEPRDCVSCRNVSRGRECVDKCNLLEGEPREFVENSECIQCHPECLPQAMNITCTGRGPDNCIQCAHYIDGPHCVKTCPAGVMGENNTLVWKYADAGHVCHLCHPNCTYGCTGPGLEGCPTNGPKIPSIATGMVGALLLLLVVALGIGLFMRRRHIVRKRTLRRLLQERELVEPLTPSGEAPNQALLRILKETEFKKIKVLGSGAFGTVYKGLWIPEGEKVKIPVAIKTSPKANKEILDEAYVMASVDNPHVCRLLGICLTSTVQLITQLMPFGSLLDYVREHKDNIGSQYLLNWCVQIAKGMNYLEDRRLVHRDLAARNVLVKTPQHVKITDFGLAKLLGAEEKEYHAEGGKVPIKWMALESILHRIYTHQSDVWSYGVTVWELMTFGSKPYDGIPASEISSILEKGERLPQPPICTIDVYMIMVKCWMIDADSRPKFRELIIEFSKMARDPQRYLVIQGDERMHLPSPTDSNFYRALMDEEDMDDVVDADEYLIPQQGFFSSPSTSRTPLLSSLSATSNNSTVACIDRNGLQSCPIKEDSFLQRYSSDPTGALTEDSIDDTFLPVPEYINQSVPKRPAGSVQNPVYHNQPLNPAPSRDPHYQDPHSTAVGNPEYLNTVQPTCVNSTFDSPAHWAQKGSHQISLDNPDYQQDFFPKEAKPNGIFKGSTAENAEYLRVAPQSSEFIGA
parameter: IC50 (nM)

a: C[C@]1(O)CC[C@@H](Nc2cc(Nc3ccnc(-c4cnn(S(=O)(=O)C5CC5)c4)n3)ncc2-c2ccc(C#N)cn2)CC1
b: O=S(=O)(C1CC1)n1cc(-c2nccc(Nc3cc(N[C@H]4CC[C@H](CCO)CC4)c(-c4ccc(C(F)F)cn4)cn3)n2)cn1
Request: Lab notebook, comparison: a versus b , higher IC50 goes to which? Refer to your chosen item by its label in the answer.
Response: b
(b: 66.9 nM, a: 0.5 nM)

----------
target: EGFR wildtype (Homo sapiens, UniProt P00533); test: Biochemical EGFR kinase assay (Lance Ultra TR-FRET), wildtype; details: IC50 WT, 100 μM ATP
pIC50: −log10 of the molar value.
Each entry below carries its reported pIC50.

Some solved cases for reference:
[[record]]
cpdsmiles = "CC(C)(F)c1ccc(-c2cnc(Nc3ccnc(-c4cnn(S(=O)(=O)C5CC5)c4)n3)cc2N[C@H]2CC[C@@H](CO)CC2)nc1"
parameter = "pIC50"
measuredresult = 6.16

[[record]]
cpdsmiles = "O=S(=O)(C1CC1)n1cc(-c2nccc(Nc3cc(N[C@H]4CC[C@@H](CO)CC4)c(-c4ccc(C(F)(F)CO)cn4)cn3)n2)cn1"
parameter = "pIC50"
measuredresult = 5.85


Continue with the compound presented below.
Request: Reported pIC50 for CC(C)(F)c1ccc(-c2cnc(Nc3ccnc(-c4cnn(S(=O)(=O)C5CC5)c4)n3)cc2N[C@H]2CC[C@@H](C(C)(C)O)CC2)nc1 : what is it?
Response: < 5.00

----------
target: EGFR del19/T790M/C797S (Homo sapiens, UniProt P00533, C797S/DEL746-750/T790M); assay: Biochemical EGFR kinase assay (Lance Ultra TR-FRET), triple mutant del19/T790M/C797S; details: read-out: IC50 del19/T790M/C797S, 100 μM ATP
Sequence (P00533 with tags, fused parts or gaps DEL746-750/T790M/C797S): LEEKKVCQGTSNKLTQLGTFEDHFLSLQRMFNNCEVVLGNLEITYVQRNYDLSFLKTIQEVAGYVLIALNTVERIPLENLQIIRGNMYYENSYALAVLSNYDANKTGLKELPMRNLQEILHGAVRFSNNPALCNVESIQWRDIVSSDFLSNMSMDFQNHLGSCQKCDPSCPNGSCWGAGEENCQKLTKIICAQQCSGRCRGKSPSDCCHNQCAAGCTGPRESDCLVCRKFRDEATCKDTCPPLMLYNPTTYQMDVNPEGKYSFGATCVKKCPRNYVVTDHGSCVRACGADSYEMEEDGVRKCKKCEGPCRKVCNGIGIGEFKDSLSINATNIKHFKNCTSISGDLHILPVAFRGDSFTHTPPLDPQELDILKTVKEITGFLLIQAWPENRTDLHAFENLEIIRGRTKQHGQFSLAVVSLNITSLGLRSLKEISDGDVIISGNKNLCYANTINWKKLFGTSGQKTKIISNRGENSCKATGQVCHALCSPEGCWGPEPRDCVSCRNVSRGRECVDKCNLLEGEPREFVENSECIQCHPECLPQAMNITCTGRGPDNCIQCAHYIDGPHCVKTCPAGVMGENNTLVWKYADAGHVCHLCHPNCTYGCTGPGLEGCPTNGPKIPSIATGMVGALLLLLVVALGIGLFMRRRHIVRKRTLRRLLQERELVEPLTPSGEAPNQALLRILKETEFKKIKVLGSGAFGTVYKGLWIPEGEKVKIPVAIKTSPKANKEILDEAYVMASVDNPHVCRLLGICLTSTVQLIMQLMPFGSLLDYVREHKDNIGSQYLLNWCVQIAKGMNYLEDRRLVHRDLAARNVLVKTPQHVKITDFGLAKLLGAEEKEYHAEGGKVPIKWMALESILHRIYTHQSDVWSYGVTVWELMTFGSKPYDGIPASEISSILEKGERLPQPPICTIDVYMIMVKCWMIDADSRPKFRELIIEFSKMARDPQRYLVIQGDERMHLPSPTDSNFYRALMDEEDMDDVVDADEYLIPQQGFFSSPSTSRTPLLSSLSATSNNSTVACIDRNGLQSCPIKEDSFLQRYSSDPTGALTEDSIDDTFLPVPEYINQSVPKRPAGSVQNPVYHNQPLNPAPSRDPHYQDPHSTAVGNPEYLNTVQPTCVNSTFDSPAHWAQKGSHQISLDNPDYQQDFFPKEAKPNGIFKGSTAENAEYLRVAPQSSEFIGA
parameter: pIC50
Remember, pIC50 is on a log scale: it is -log10 of the molar concentration.

Request: Please state recorded pIC50 (tested on EGFR del19/T790M/C797S (Homo sapiens, UniProt P00533, C797S/DEL746-750/T790M)) of CC(C)(O)[C@H]1CC[C@@H](Nc2cc(Nc3ccnc(-c4cnn(S(=O)(=O)C5CC5)c4)n3)ncc2-c2ccc(N3CC(F)(F)C3)cn2)CC1
Response: 8.22

----------
Target: EGFR del19/T790M/C797S (Homo sapiens, UniProt P00533, C797S/DEL746-750/T790M)
Test: Biochemical EGFR kinase assay (Lance Ultra TR-FRET), triple mutant del19/T790M/C797S
Details: ATP at Km; read-out: IC50 del19/T790M/C797S, Km ATP
Experimental: Biochemical EGFR kinase assays were conducted using Lance Ultra time-resolved fluorescence resonance energy transfer (TR-FRET) technology from Perkin-Elmer. […] Each kinase reactions were incubated at room temperature for 1 hour and then stopped by the addition of 4 μL of stop solution (10 mM EDTA). […] After 60 minutes incubation at room temperature the LANCE signal was measured on an EnVision Multilabel Reader (Perkin-Elmer). […]
parameter: IC50 (pM)

[[record]]
molecule = "CN(C)C[C@H]1CC[C@@H](Nc2cc(Nc3ccnc(-c4cnn(S(=O)(=O)C5CC5)c4)n3)ncc2-c2ccc(CC(F)(F)F)cn2)CC1"
parameter = "IC50"
measuredresult = 1100

[[record]]
molecule = "CN1CCC(F)(COc2cnc(-c3cnc(Nc4ccnc(-c5cnn(S(=O)(=O)C6CC6)c5)n4)cc3N[C@H]3CC[C@@](C)(O)CC3)cn2)CC1"
parameter = "IC50"
measuredresult = 200

[[record]]
molecule = "CN1CCC(Oc2ccc(-c3cnc(Nc4ccnc(-c5cnn(S(=O)(=O)C6CC6)c5)n4)cc3NC3CCC(F)(CO)CC3)nc2)CC1 (stereo not drawn)"
parameter = "IC50"
measuredresult = 1000

[[record]]
molecule = "CN(C)C(=O)[C@H]1CC[C@@H](Nc2cc(Nc3ccnc(-c4cnn(S(=O)(=O)C5CC5)c4)n3)ncc2-c2ccc(C(C)(C)O)cn2)CC1"
parameter = "IC50"
measuredresult = 700


1: CN(C)CCNc1ccnc(-c2cnc(Nc3ccnc(-c4cnn(S(=O)(=O)C5CC5)c4)n3)cc2N[C@H]2CC[C@@](C)(O)CC2)c1
2: C[C@]1(O)CC[C@@H](Nc2cc(Nc3ccnc(-c4cnn(S(=O)(=O)C5CC5)c4)n3)ncc2-c2ccc(CCC(F)(F)F)cn2)CC1
Request: Lab notebook, comparison: 1 versus 2 , higher IC50 goes to which? Refer to your chosen item by its label in the answer.
Response: 2
(2: 8000 pM, 1: 800 pM)

Hello, the source for this data is patent US12258328B2, in case you need it.
